Entry source: the RNAGym collection of RNA variant scans (doi:10.7554/elife.90254)

B1: LINE1-mini (parent)
chain: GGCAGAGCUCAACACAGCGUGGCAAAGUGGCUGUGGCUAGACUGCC

# Variants of: B1
# EXPERIMENT_NOTES: self-cleavage, relative activity (ratio to wild type); higher = more cleavage; in vitro, sequencing; the parent is a self-cleaving ribozyme
Known self-cleavage of a selection of variants
MEASURED_PARAMETER: self-cleavage

mutation_code="C8U G19U" measured_parameter=self-cleavage obs_value=0.24
mutation_code="A12G A26G" measured_parameter=self-cleavage obs_value=0.03
mutation_code="G21U A26G" measured_parameter=self-cleavage obs_value=1.29
mutation_code="G21C U32G" measured_parameter=self-cleavage obs_value=0.23
mutation_code="C15A U20G" measured_parameter=self-cleavage obs_value=0.08
mutation_code="A12U C15G" measured_parameter=self-cleavage obs_value=0.06
mutation_code="G1A A41C" measured_parameter=self-cleavage obs_value=0.09
mutation_code="C10G C42G" measured_parameter=self-cleavage obs_value=0.03
mutation_code="G22U G40C" measured_parameter=self-cleavage obs_value=0.18
mutation_code="G5C C46A" measured_parameter=self-cleavage obs_value=0.09
mutation_code="A24C G27C" measured_parameter=self-cleavage obs_value=0.77
mutation_code="C23U G44U" measured_parameter=self-cleavage obs_value=0.32
mutation_code="G21U A26U" measured_parameter=self-cleavage obs_value=1.93
mutation_code="A14C G29A" measured_parameter=self-cleavage obs_value=0.29
mutation_code="A6U U32A" measured_parameter=self-cleavage obs_value=0.15
mutation_code="G21A G35A" measured_parameter=self-cleavage obs_value=0.15
mutation_code="G5A C8G" measured_parameter=self-cleavage obs_value=0.22
mutation_code="G35U C42G" measured_parameter=self-cleavage obs_value=0.05
mutation_code="A12U G29U" measured_parameter=self-cleavage obs_value=0.37
mutation_code="G36U A41U" measured_parameter=self-cleavage obs_value=0.1
mutation_code="C23A G35A" measured_parameter=self-cleavage obs_value=0.23
mutation_code="A16U G40C" measured_parameter=self-cleavage obs_value=0.05
mutation_code="G35A A39G" measured_parameter=self-cleavage obs_value=0.07
mutation_code=A25G measured_parameter=self-cleavage obs_value=0.73
mutation_code="A12G C45U" measured_parameter=self-cleavage obs_value=0.05
mutation_code="G21U C37G" measured_parameter=self-cleavage obs_value=0.04
mutation_code="C3A U34C" measured_parameter=self-cleavage obs_value=0.14
mutation_code="G21C G44U" measured_parameter=self-cleavage obs_value=0.28
mutation_code="G21A U38C" measured_parameter=self-cleavage obs_value=1.12
mutation_code="C8A G19U" measured_parameter=self-cleavage obs_value=0.11
mutation_code="A26G G35C" measured_parameter=self-cleavage obs_value=0.1
mutation_code="G7U C37G" measured_parameter=self-cleavage obs_value=0.01
mutation_code="U34C G44U" measured_parameter=self-cleavage obs_value=0.09
mutation_code="G1U C46U" measured_parameter=self-cleavage obs_value=0.43
mutation_code="G5C C42G" measured_parameter=self-cleavage obs_value=0.46
mutation_code="C10A A14C" measured_parameter=self-cleavage obs_value=0.02
